# Measurement Target: RSV F protein on respiratory syncytial virus (RSV-Long strain) (respiratory syncytial virus (Long strain)) (UniProt P12568)
# Sequence (P12568 26-574): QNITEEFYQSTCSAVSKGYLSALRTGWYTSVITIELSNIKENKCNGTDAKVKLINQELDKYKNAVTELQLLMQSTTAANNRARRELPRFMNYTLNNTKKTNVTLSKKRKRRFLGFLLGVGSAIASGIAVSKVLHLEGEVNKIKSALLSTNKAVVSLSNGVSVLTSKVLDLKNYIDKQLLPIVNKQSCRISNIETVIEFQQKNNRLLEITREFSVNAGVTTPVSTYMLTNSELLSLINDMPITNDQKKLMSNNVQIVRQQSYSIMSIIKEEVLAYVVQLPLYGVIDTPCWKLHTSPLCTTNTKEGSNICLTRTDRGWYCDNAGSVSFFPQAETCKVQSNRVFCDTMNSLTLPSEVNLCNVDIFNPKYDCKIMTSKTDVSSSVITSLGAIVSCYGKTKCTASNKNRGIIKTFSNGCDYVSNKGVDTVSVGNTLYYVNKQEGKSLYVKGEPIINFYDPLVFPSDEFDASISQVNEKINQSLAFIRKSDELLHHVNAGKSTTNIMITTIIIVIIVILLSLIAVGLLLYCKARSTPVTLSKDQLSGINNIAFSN
# Test Method Notes: cell-based or functional assay
Give measured Mean IC50 (Curve), RSV microneutralization for each item. Keep answers brief.
Return type: number; implicit unit µg/mL.

Value of Mean IC50 (Curve), RSV microneutralization reported for the binder P12f2 Fab fragment (Fab, V domains shown) VH: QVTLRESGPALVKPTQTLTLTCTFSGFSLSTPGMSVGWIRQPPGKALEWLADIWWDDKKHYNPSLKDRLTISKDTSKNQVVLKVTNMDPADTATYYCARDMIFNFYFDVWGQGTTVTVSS VL: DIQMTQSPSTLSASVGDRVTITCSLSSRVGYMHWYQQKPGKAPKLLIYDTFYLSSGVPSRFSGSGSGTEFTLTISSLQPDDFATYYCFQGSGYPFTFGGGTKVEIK is 0.0407

Value of Mean IC50 (Curve), RSV microneutralization reported for the binder A17d4(1) monoclonal antibody (antibody, V domains shown) VH: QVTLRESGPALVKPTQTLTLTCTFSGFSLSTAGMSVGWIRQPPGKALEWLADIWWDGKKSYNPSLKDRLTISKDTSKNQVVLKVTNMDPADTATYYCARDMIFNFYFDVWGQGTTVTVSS VL: DIQMTQSPSTLSASVGDRVTITCLPSSRVGYMHWYQQKPGKAPKLLIYDTMYQSSGVPSRFSGSGSGTEFTLTISSLQPDDFATYYCFQGSGYPFTFGGGTKVEIK is 0.0342

Value of Mean IC50 (Curve), RSV microneutralization reported for the binder A13a11 Fab fragment (Fab, V domains shown) VH: QVTLRESGPALVKPTQTLTLTCTFSGFSLSTAGMSVGWIRQPPGKALEWLADIWWDDKKHYNPSLKDRLTISKDTSKNQVVLKVTNMDPADTATYYCARDMIFNWYFDVWGQGTTVTVSS VL: DIQMTQSPSTLSASVGDRVTITCSPSSRVGYMHWYQQKPGKAPKLLIYDTYRHSSGVPSRFSGSGSGTEFTLTISSLQPDDFATYYCFQGSGYPFTFGGGTKVEIK is 0.12

Value of Mean IC50 (Curve), RSV microneutralization reported for the binder P12f2 monoclonal antibody (antibody, V domains shown) VH: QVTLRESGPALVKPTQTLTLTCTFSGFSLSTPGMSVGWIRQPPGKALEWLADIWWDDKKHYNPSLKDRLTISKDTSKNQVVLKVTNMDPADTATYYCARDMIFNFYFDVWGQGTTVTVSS VL: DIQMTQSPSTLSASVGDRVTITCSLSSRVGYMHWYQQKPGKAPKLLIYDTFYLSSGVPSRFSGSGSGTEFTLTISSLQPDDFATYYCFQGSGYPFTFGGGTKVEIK is 0.0231

Value of Mean IC50 (Curve), RSV microneutralization reported for the binder A13c4 monoclonal antibody (antibody, V domains shown) VH: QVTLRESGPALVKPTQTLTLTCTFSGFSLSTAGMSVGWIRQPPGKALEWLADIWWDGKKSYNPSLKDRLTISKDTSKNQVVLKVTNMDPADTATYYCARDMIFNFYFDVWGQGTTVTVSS VL: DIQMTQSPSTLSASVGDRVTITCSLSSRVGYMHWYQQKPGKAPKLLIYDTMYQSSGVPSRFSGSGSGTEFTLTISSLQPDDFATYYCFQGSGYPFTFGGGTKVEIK is 0.0376

Value of Mean IC50 (Curve), RSV microneutralization reported for the binder A1e9 Fab fragment (Fab, V domains shown) VH: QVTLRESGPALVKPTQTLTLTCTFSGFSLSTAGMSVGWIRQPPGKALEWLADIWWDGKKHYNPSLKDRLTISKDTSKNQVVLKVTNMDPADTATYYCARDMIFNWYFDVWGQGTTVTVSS VL: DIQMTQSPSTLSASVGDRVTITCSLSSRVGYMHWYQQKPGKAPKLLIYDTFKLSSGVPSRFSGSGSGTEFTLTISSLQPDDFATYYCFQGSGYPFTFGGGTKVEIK is 0.157

Value of Mean IC50 (Curve), RSV microneutralization reported for the binder A1e9 monoclonal antibody (antibody, V domains shown) VH: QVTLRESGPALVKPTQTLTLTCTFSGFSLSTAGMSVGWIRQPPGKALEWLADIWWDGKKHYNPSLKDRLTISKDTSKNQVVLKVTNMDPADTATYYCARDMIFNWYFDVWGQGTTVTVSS VL: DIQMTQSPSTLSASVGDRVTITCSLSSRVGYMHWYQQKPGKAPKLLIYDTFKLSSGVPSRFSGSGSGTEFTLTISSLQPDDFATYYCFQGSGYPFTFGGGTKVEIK is 0.0625
